Target: T1, IRF-3 DBD wild type (human, UniProt Q14653 1-113)
T1 sequence: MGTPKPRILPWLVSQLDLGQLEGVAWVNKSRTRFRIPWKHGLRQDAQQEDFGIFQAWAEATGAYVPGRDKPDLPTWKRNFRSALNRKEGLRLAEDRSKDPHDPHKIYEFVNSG
Test: fluorescence anisotropy
pKd: −log10 of the molar value.
Measured quantity: pKd

# Binder, Obs value
measured = [
    ("PRDI 15-mer duplex (dsDNA) DNA 1: GAGAAGTGAAAGTGG DNA 2: CCACTTTCACTTCTC", 6.31),
]
